experimental_system: T1, DLG3_2, Q92796
T1 sequence (Q92796 221-321, limits assumed, looked up): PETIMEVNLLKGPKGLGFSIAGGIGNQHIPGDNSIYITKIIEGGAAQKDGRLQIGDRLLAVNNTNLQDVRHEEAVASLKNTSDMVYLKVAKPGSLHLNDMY
protocol_description: holdup assay
Design: key: below the threshold = too weak to quantify, mostly under pKd 3.1 to 4
setup_conditions: plain residues with an end cap or a label only (N-terminal biotin on a linker: ado-ado)
Let's look at some binders and their measured pKd.
The response must contain the number and no unit.

Take a look at these entries with their results.
{"binder": "KPGKGSETVV [FZD4, Q9ULV1]", "pKd": 4.77}
{"binder": "RSSGGDDFWF [KCNV1, Q6PIU1]", "pKd": 4.06}
{"binder": "DGVNEKVSCV [HTR2A, P28223]", "pKd": 4.82}
{"binder": "IDESKKEWLI [CNTNAP2, Q9UHC6]", "pKd": 3.91}
{"binder": "LPAVCYDIDI [PTTG2, Q9NZH5]", "pKd": 4.09}
{"binder": "TISFTQTSQF [SLC1A1, P43005]", "pKd": 4.08}

Q: Retrieve pKd measured for NTLNRKTTPV [CACNG8, Q8WXS5] and print it.
Ans: 4.59

Q: Retrieve pKd measured for STKRKLASAV [NCF1, P14598] and print it.
Ans: 4.45

Q: Retrieve pKd measured for DRIQSCLSDA [SBF1, O95248] and print it.
Ans: 4.19

Q: Retrieve pKd measured for REEPDHSTEV [CCRL2, O00421] and print it.
Ans: 4.59

Q: Retrieve pKd measured for NISYRRESAI [KCNJ4, P48050] and print it.
Ans: 4.35

Q: Retrieve pKd measured for EDLEDEWEVI [TECPR2, O15040] and print it.
Ans: 4.09
